# PROTOCOL_DESCRIPTION: qHTS assay to test for compound auto fluorescence at 460 nm (blue) in HEK293 cells (AID 720678); note: % is set by controls: 0 for no effect and ±100 for the full control effect
# CONDITIONS: blue autofluorescence 405/460 nm; series mostly up to 91.3 µM
The source made the active and inactive calls. Calls come from the whole dose curve; as a rule, active = well fitted curve in the direction sought with a large enough effect in the repeat runs; inconclusive = weak or mixed curves; inactive = flat fitted curve, though single readings scatter.
OUTCOME_MEASURE: fluorescence, % of triamterene

Below, each entry is followed by its recorded fluorescence, % of triamterene result.
Output measured fluorescence, % of triamterene for this item: `O=C1c2ccccc2C(=O)c2c1ccc(O)c2O` inactive

Answer with the recorded fluorescence, % of triamterene of `NC(=O)c1cc[n+](CC2=C(C(=O)[O-])N3C(=O)[C@@H](NC(=O)Cc4cccs4)[C@H]3SC2)cc1` only. 0.803% [at 18.6 µM] (inactive)

Identify measured fluorescence, % of triamterene associated with `Cc1ccc2c(Cl)cc(Cl)c(O)c2n1` inactive

Supply recorded fluorescence, % of triamterene for `O=C1c2ccccc2C(=O)C1c1ccc2ccccc2n1` here. inactive

New cases:
Report fluorescence, % of triamterene, nothing else, for this compound: `CCCCOc1ccc(N)cc1` inactive

Check the records and state fluorescence, % of triamterene for CCCCCC1CCC(=O)O1 (configuration not stated) inactive

---

# PROTOCOL_DESCRIPTION: qHTS assay to identify small molecule agonists of the androgen receptor (AR) signaling pathway in the presence of an antagonist - cell viability counter screen (AID 1259379);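 note: MDA-kb2 human breast cancer cells carrying an MMTV luciferase reporter; % is set by controls: 0 for no effect and ±100 for the full control effect; nearly all actives have a fitted effect of over 25% in size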
# CONDITIONS: MDA-kb2 viability, CellTiter-Fluor, 16 h; series mostly up to 92.4 µM
Records with an inconclusive call do not appear. Active and inactive are the calls of the source. Calls come from the whole dose curve; as a rule, active = well fitted cell-killing curve with a large enough effect in the repeat runs; inconclusive = weak or mixed curves, or effect the other way; inactive = flat fitted curve, though single readings scatter.
I would appreciate it if you answered using one of these outcomes: Yes (active), No (inactive)

Example entries and their recorded answers appear below.
Per the records of this test, what outcome belongs to `Cc1cc(N)n(-c2ccccc2)n1` ? No

Which outcome was assigned to `C(/C=C/C=C/Nc1ccccc1)=Nc1ccccc1` in this test? No

Could you kindly confirm the outcome this assay logged for `Clc1ccccc1-c1nc(-c2ccncc2)no1` ? No

***
Answer briefly: the call reported for `O=C(O)c1ccccc1[N+](=O)[O-]` in this assay. No

Given `OCCCO` , state the outcome it received in this test. No

For `CCCCCCC/C=C/C=O` , what call appears in the results of this test? No

---

# PROTOCOL_DESCRIPTION: A CellTox Green Cytotoxicity Assay to monitor cytotoxicity in HEK293 cells - 8 hour (AID 1224884); note: % is set by controls: 0 for no effect and ±100 for the full control effect; nearly all actives have a fitted effect of over 35% in size
# CONDITIONS: CellTox Green fluorescence; series mostly up to 76.8 µM
Inconclusive results are not listed. Calls of active or inactive are those of the source. Calls come from the whole dose curve; as a rule, active = well fitted activation curve with a large enough effect in the repeat runs; inconclusive = weak or mixed curves; inactive = flat fitted curve, though single readings scatter.
Entry note: the call must match one of 1 (active), -1 (inactive)

Here's what some known entries look like.
What is the recorded call for this molecule in the test? CC(C)(Cc1c[nH]c2ccccc12)NCC(O)COc1ccccc1C#N (centres undefined) -1

Outcome? `CC(C)(C)c1ccc(CCC=O)cc1` -1

Short answer needed: outcome of this test for N#CCCCC(C#N)CCC#N (centres undefined) ? -1

Continuing:
Name the outcome recorded for `COC(=O)/C=C/C(C)=C\C=C\C(C)=C\C=C\C=C(C)\C=C\C=C(C)\C=C\C(=O)O` in the assay. -1

Outcome logged for `CC1(C)CC(O)CC(C)(C)N1[O]` in this assay: -1

So what was the verdict on `C[C@]12CCC(=O)C=C1[C@@H]1C[C@@H]1[C@H]1[C@@H]3[C@@H]4C[C@@H]4[C@@]4(CCC(=O)O4)[C@@]3(C)CC[C@@H]12` in this test? -1

Call for entry CC(C)=CCCC(C)C=O (centres undefined) : -1

Short answer needed: outcome of this test for `O=C(OCCOCCOCCOC(=O)c1ccccc1)c1ccccc1` ? -1

For this molecule, state the assay outcome: `O=C(O)c1cccnc1Nc1cccc(C(F)(F)F)c1` -1

# lookup: test call for `NC(=O)c1ccccc1` -1

Answer briefly: the call reported for COc1ccnc2c1CCCCC2S(=O)c1nc2ccccc2[nH]1 (centres undefined) in this assay. -1

Please indicate how the test categorized `CC(C)(O)C(=O)O` . -1

Each molecule tested received a call. Report the one for `CCCCCCCCCCCCSC#N` . -1

Per the assay record, what outcome was assigned to `CC(=O)Nc1cccc(N)c1` ? -1

What did this assay record as the result for CC(C(=O)O)c1ccc2c(c1)Cc1cccnc1O2 (centres undefined) ? -1

Please indicate how the test categorized `COc1ccc(/C(C)=C/C(=O)O)c(OC)c1` . -1

// return assay outcome for `CC(=O)CC/C=C(\C)CC/C=C(\C)CC/C=C(\C)CCC=C(C)C` -1

Called result for `O=C(Nc1ccc2c(c1)Cc1ccccc1-2)C(F)(F)F` -1

I'd appreciate the recorded outcome for `Cc1c(N=C=O)cccc1N=C=O` from this test. -1

Assay result, entry CC(Cc1ccccc1)(NC(=O)CN)c1ccccc1 (centres undefined) — outcome? -1

Lab log entry: `C[C@@H](O)[C@H]1C(=O)N2C(C(=O)O)=C(S[C@@H]3CN[C@H](CNS(N)(=O)=O)C3)[C@H](C)[C@H]12` — outcome as called in the assay? -1

Status in this test for `O=C(O)c1ccc2cc(O)ccc2c1` ? -1
